Entries and their solubility at 2 h values follow.
Test: Solubility in selected solvents (Table 2)
Type: physicochemical
Conditions: aqueous with cosolvent or surfactant or cyclodextrin, thermodynamic from solid; EtOH/H2O (1/1), 50° C.

INSERT INTO assay_data (entry_smiles, reported_metric, val) VALUES
  ('Cc1ncccc1-c1cnc(NCc2c(F)ccc3c2CCO3)n2cnnc12.Cl', 'solubility at 2 h', '> 50 mg/mL');

Now, please, on to the next molecule.
Form: molecule = Cc1ncccc1-c1cnc(NCc2c(F)ccc3c2CCO3)n2cnnc12 ; solubility at 2 h = < 10 mg/mL

====

Assay: Solubility in selected solvents (Table 2)
Type: physicochemical
Conditions: organic solvent or mixture, thermodynamic from solid; Heptane, 50° C.
Description: To 10 mg of compound X in a sample vial at 50° C., selected solvent was added dropwise. The addition of solvent was stopped when a clear solution was reached or when the amount of solvent reached 1 mL. The resulting mixture was stirred continuously at 50° C. for 2 h, then cooled to rt, and stirred overnight. The solubilities at 50° C. and rt were determined by the homogeneity of the resulting mixture.
Listed below: solubility at 2 h values for each entry.

INSERT INTO measurements (entry_smiles, val) VALUES
  ('Cc1ncccc1-c1cnc(NCc2c(F)ccc3c2CCO3)n2cnnc12.Cl', '< 10000 µg/mL');

Entry Cc1ncccc1-c1cnc(NCc2c(F)ccc3c2CCO3)n2cnnc12 , solubility at 2 h reported as < 10000 µg/mL

====

Test: Solubility in selected solvents (Table 2)
Type: physicochemical
Settings: organic solvent or mixture, thermodynamic from solid; EtOAc, rt
Overview of reported solubility across a group of molecules:

INSERT INTO results (entry_smiles, val) VALUES
  ('Cc1ncccc1-c1cnc(NCc2c(F)ccc3c2CCO3)n2cnnc12', '< 10000 µg/mL');

Moving on to another molecule below.
The molecule listed as Cc1ncccc1-c1cnc(NCc2c(F)ccc3c2CCO3)n2cnnc12.Cl shows solubility equal to < 10000 µg/mL

====

Test: Solubility in selected solvents (Table 2)
Type: physicochemical
Details: organic solvent or mixture, thermodynamic from solid; IPA, 50° C.
REPORTED METRIC: solubility at 2 h

INSERT INTO assay_data (entry_smiles, val) VALUES
  ('Cc1ncccc1-c1cnc(NCc2c(F)ccc3c2CCO3)n2cnnc12.Cl', '< 10 mg/mL');

# next compound below
Entry Cc1ncccc1-c1cnc(NCc2c(F)ccc3c2CCO3)n2cnnc12 — recorded solubility at 2 h = < 10 mg/mL

====

Experiment: Solubility in selected solvents (Table 2)
Type: physicochemical
Conditions: organic solvent or mixture, thermodynamic from solid; ACN, 50° C.
REPORTED METRIC: solubility at 2 h

INSERT INTO results (entry_smiles, val) VALUES
  ('Cc1ncccc1-c1cnc(NCc2c(F)ccc3c2CCO3)n2cnnc12.Cl', '< 10 mg/mL');

Let us examine a further case.
Given item Cc1ncccc1-c1cnc(NCc2c(F)ccc3c2CCO3)n2cnnc12 , the value recorded as its solubility at 2 h is < 10 mg/mL

====

Experiment: Solubility in selected solvents (Table 2)
Format: physicochemical
Details: organic solvent or mixture, thermodynamic from solid; IPA, rt
Recorded solubility by entry

INSERT INTO measurements (entry_smiles, reported_metric, val) VALUES
  ('Cc1ncccc1-c1cnc(NCc2c(F)ccc3c2CCO3)n2cnnc12.Cl', 'solubility', '< 10000 µg/mL');

The reported solubility of the compound Cc1ncccc1-c1cnc(NCc2c(F)ccc3c2CCO3)n2cnnc12 was < 10000 µg/mL

====

Recorded solubility at 2 h by entry
Assay: Solubility in selected solvents (Table 2)
Type: physicochemical
Details: organic solvent or mixture, thermodynamic from solid; EtOAc, 50° C.

INSERT INTO measurements (entry_smiles, val) VALUES
  ('Cc1ncccc1-c1cnc(NCc2c(F)ccc3c2CCO3)n2cnnc12', '< 10000 µg/mL');

As a next step, examine the molecule that follows.
Sure, the documented solubility at 2 h for Cc1ncccc1-c1cnc(NCc2c(F)ccc3c2CCO3)n2cnnc12.Cl is < 10000 µg/mL

====

Test: Solubility in selected solvents (Table 2)
Format: physicochemical
Conditions: aqueous with cosolvent or surfactant or cyclodextrin, thermodynamic from solid; Acetone/H2O (1/1), 50° C.
Experimental: To 10 mg of compound X in a sample vial at 50° C., selected solvent was added dropwise. The addition of solvent was stopped when a clear solution was reached or when the amount of solvent reached 1 mL. The resulting mixture was stirred continuously at 50° C. for 2 h, then cooled to rt, and stirred overnight. The solubilities at 50° C. and rt were determined by the homogeneity of the resulting mixture.
REPORTED METRIC: solubility at 2 h

INSERT INTO results (entry_smiles, val) VALUES
  ('Cc1ncccc1-c1cnc(NCc2c(F)ccc3c2CCO3)n2cnnc12.Cl', '> 50 mg/mL');

Now look at this one.
Looking up Cc1ncccc1-c1cnc(NCc2c(F)ccc3c2CCO3)n2cnnc12 , I found its solubility at 2 h recorded as < 10 mg/mL

====

Assay: Solubility in selected solvents (Table 2)
Assay type: physicochemical
Details: organic solvent or mixture, thermodynamic from solid; Acetone, 50° C.
The entries below are paired with their reported solubility at 2 h.

INSERT INTO assay_data (entry_smiles, reported_metric, val) VALUES
  ('Cc1ncccc1-c1cnc(NCc2c(F)ccc3c2CCO3)n2cnnc12.Cl', 'solubility at 2 h', '< 10000 µg/mL');

Notebook: Cc1ncccc1-c1cnc(NCc2c(F)ccc3c2CCO3)n2cnnc12 , solubility at 2 h read as < 10000 µg/mL

====

Assay: Solubility in selected solvents (Table 2)
Type: physicochemical
Settings: aqueous with cosolvent or surfactant or cyclodextrin, thermodynamic from solid; EtOH/H2O (1/1), rt
REPORTED METRIC: solubility

INSERT INTO measurements (entry_smiles, reported_metric, val) VALUES
  ('Cc1ncccc1-c1cnc(NCc2c(F)ccc3c2CCO3)n2cnnc12', 'solubility', '< 10 mg/mL');

Turning to the following molecule.
Note to self: solubility recorded for Cc1ncccc1-c1cnc(NCc2c(F)ccc3c2CCO3)n2cnnc12.Cl was < 50 mg/mL

====

Assay: Solubility in selected solvents (Table 2)
Format: physicochemical
Conditions: organic solvent or mixture, thermodynamic from solid; MeOH, rt
REPORTED METRIC: solubility

INSERT INTO measurements (entry_smiles, reported_metric, val) VALUES
  ('Cc1ncccc1-c1cnc(NCc2c(F)ccc3c2CCO3)n2cnnc12.Cl', 'solubility', '> 10000 µg/mL');

# solubility of Cc1ncccc1-c1cnc(NCc2c(F)ccc3c2CCO3)n2cnnc12 = < 10000 µg/mL

====

Experiment: Solubility in selected solvents (Table 2)
Assay type: physicochemical
Details: organic solvent or mixture, thermodynamic from solid; Acetone, rt
Catalogue of compounds with associated solubility

INSERT INTO results (compound, val) VALUES
  ('Cc1ncccc1-c1cnc(NCc2c(F)ccc3c2CCO3)n2cnnc12.Cl [Compound X]', '< 10000 µg/mL');

As a next step, examine the compound that follows.
Summary for this compound, Cc1ncccc1-c1cnc(NCc2c(F)ccc3c2CCO3)n2cnnc12 [Compound A] : solubility is < 10000 µg/mL

====

Experiment: Solubility in selected solvents (Table 2)
Type: physicochemical
Details: thermodynamic from solid; Water, 50° C.
REPORTED METRIC: solubility at 2 h

INSERT INTO assay_data (compound, val) VALUES
  ('Cc1ncccc1-c1cnc(NCc2c(F)ccc3c2CCO3)n2cnnc12.Cl [Compound X]', '< 10000 µg/mL');

Next:
Lab note: measured solubility at 2 h of Cc1ncccc1-c1cnc(NCc2c(F)ccc3c2CCO3)n2cnnc12 [Compound A] was < 10000 µg/mL

====

Some compounds, each annotated with its measured solubility at 2 h.
Assay: Solubility in selected solvents (Table 2)
Format: physicochemical
Settings: organic solvent or mixture, thermodynamic from solid; EtOH, 50° C.

INSERT INTO measurements (entry_smiles, val) VALUES
  ('Cc1ncccc1-c1cnc(NCc2c(F)ccc3c2CCO3)n2cnnc12', '< 10000 µg/mL');

Turning to the following compound.
What the record says about Cc1ncccc1-c1cnc(NCc2c(F)ccc3c2CCO3)n2cnnc12.Cl : solubility at 2 h is < 10000 µg/mL

====

Assay: Solubility in selected solvents (Table 2)
Type: physicochemical
Settings: organic solvent or mixture, thermodynamic from solid; THF, 50° C.
REPORTED METRIC: solubility at 2 h

INSERT INTO results (entry_smiles, val) VALUES
  ('Cc1ncccc1-c1cnc(NCc2c(F)ccc3c2CCO3)n2cnnc12.Cl', '< 10000 µg/mL');

Now turn to the next compound.
Lookup result for Cc1ncccc1-c1cnc(NCc2c(F)ccc3c2CCO3)n2cnnc12 ; measured solubility at 2 h: < 10000 µg/mL

====

Assay: Solubility in selected solvents (Table 2)
Format: physicochemical
Conditions: thermodynamic from solid; Water, rt
REPORTED METRIC: solubility

INSERT INTO results (entry_smiles, val) VALUES
  ('Cc1ncccc1-c1cnc(NCc2c(F)ccc3c2CCO3)n2cnnc12.Cl', '< 10000 µg/mL');

Next item in the queue.
molecule Cc1ncccc1-c1cnc(NCc2c(F)ccc3c2CCO3)n2cnnc12 , solubility observed: < 10000 µg/mL
